molecular target: hemagglutinin (HA) of influenza A/Japan/305/57 H2N2 (Influenza A virus A/Japan/305/1957 …, UniProt P03451 16-562); assay: ELISA, inactivated whole virions coated; transfection supernatant set 4
measurement.type: OD450 (OD450)

binder	uom	reported.result
TCN-536 (5095_N01) (antibody, V domains shown) VH: QVQLQQWGAGLLKPSETLSLTCAVYGGSFSVSGYYWSWIRQPPGRGLEWIGEISHGGSTNYNPSLKSRVTISVDTTKNQFSLRLSSVTAADTAVYYCARGTDPDTEVYCRVGNCAAFDYWGQGSLVTVSS VL: EIILAQSPGTLSLSPGERATLSCRASQFVSTRSLAWYQQRPGQAPRLLIYGASSRATGIPDRFSGSGSGTDFTLTISRLEPEDFAVYYCQHYGYSPRYAFGQGSKVEIK	OD450	0.06
TCN-504 (3251_K17) (antibody, V domains shown) VH: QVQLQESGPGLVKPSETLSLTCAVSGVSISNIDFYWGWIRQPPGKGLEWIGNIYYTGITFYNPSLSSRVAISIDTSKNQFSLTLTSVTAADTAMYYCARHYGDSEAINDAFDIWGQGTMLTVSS VL: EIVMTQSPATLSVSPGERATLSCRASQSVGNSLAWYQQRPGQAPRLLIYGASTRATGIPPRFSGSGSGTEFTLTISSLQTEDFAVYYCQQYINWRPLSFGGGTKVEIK	OD450	3.51
TCN-523 (5248_A17) (antibody, V domains shown) VH: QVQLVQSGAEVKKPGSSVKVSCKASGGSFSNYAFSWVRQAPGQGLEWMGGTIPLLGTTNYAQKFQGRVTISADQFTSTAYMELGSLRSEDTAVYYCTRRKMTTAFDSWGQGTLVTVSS VL: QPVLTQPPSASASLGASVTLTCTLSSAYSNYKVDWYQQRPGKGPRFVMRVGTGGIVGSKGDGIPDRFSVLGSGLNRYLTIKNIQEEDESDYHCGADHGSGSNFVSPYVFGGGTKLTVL	OD450	1.73
TCN-534 (5249_B02) (antibody, V domains shown) VH: QVQLVQSGAEVKKPGSSVKVSCRESGGTFNGYTITWVRQAPGQGLEWMGGIIPMMGTVNYAQKLQGRVTITTDYFTKTAYMDLNNLRSEDTAMYYCVKIRYTGQQLLWGQGTLVTVSS VL: DIQMTQSPSTLSASIGDRVTITCRASQSIASWLAWYQQKPGKAPKLLIYEAVNLESGVPSRFSGSGSGTDFTLTISSLQPDDFATYFCQHYGTISQTFGGGTKVEIK	OD450	2.45
TCN-535 (5246_P19) (antibody, V domains shown) VH: QVQLVQSGSEVKKPGTSVKVSCTASGSVFTNYGISWVRQAPGQGLEWMGGIIPLFGAAKYAQKFQGRVTITADESTKTVYMELSRLTSKDTAIYFCAKAPRVYEYYFDQWGQGTPVTVSS VL: EIVLTQSPGTLSLSPGERATLSCRASQSVSSSQLAWYQQKPGQAPRLIIYGASTRATGIPDRFSGSGSGTDFTLTIGRLEPEDFAVFFCQQYSTSPPTFGQGTKVDFK	OD450	2.45
